Target: T1, EsCas13d, nuclease-dead (Eubacterium siraeum, UniProt B0MS50, R295A;H300A;R849A;H854A)
T1 sequence: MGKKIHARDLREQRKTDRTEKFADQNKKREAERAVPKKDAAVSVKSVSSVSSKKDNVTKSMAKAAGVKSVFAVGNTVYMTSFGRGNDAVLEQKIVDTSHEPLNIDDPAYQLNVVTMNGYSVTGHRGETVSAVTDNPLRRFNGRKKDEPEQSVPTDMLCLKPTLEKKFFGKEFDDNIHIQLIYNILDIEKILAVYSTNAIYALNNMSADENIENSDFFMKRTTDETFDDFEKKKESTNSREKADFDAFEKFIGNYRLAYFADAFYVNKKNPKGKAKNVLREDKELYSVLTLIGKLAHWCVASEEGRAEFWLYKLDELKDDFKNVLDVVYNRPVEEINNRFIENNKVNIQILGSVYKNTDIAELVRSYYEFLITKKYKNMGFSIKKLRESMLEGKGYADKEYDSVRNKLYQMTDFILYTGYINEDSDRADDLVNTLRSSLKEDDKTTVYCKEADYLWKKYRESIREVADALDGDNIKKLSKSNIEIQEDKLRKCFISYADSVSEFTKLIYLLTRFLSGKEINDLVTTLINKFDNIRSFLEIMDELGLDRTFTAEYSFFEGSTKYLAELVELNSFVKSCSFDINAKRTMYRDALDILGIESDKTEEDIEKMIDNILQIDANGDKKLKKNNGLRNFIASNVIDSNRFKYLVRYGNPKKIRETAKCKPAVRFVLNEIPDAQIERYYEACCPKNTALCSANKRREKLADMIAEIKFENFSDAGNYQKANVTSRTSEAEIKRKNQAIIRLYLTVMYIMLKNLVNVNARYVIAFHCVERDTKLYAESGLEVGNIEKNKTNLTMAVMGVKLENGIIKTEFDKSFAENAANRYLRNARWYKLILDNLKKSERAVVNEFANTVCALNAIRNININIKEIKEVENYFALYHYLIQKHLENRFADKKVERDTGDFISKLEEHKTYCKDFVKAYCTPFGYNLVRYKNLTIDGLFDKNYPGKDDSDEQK
Assay: crRNA (strand 1, pre-loaded); Mg2+; 40 mM Tris-HCl pH 7.5, 150 mM NaCl, 6 mM MgCl2, 1 mM DTT, 0.1% Tween-20, 0.2 mg/ml BSA; 25 C; 10 min per concentration, then washed
Conditions: tags: His6-TwinStrep-SUMO cleaved; N-terminal SNAP kept (SNAP-Surface 488); label: 3' end held by stalled T7 RNA polymerase
pKd: −log10 of the molar value.

Binder: target 3 insA 3' of 7,insA 3' of 7 (mixed) RNA 1: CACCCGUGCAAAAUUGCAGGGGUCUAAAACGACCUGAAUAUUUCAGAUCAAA RNA 2: GGGAAUGGAUCCACAUCUACGAAUUCGUUUUUGAUCUGAAAUAUUAACAGGUCUGCAGAUCGGAAGAGCACACGU
pKd: 7.42

Binder: target 1 insU 3' of 20,insC 3' of 17 (mixed) RNA 1: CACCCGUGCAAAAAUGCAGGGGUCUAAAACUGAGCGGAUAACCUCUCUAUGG RNA 2: GGGAAUGGAUCCACAUCUACGAAUUCGUACCAUUAGCAGAGGUUAUCCGCUCACCGAGAUCGGAAGAGCACACGU
pKd: 7.36

Sourced from paper PMC10786891
